Values from the nanobody polyreactivity screen of Harvey et al. (2022)

Assay: yeast display, Sf9 membrane polyspecificity reagent, FACS + sequencing; frameworks hold sequencing errors
Recorded Endpoint: polyreactivity (PSR sort gate)

1. QVQLVESGGGLVQAGGSLRLSCAASGRILHIYAMGWYRQAPGKERELVAAISWIGTSTYYADSVKGRFTISRDNAMNTVFLQMNSLKPEDTAVYYCAATGPRMYYWGQGTQVTVSS	high polyreactivity
2. QVQLVESGGRIVQAGGSLRLSCAASGSILNNYAMGWYRQAPGKERELVAAISSSGGTNYADSVKGRFTISRDNEKNTVFLQMNSLKPEDTAVYYCNADVLDGGYDYWGQGTQVTVSS	low polyreactivity
3. QVQLVESGGGLVQAGGSLRLSCAASGRTIGLYGMGWYRQAPGKEREFDAAITRRGGSTYYADSVKGRFTISRDHAKNTVYLQMNSLKPEDTADYYCAAGYSSRYRGGLDYWGQGTQVTVSS	high polyreactivity
4. QVQLVESGGGLVQAGGRLRISCAASGRIFTYNTLGWSRQEPGKERELVAAIRTGGSTNYADSVKGRFTISRDNAKITVNLQMNSLKPEDTAVSYCNTVRHSTSDYWYDFWGQGTQVTLSS	low polyreactivity
5. QVQLVESCGGLVQAGGSLRLSCAASGSTLATYAMGWYRQAPWKERELDAVITRGGRTYYADSVKGRFTISRDNAKNTVYLQMNSLKPEDTAVFYCNATRAGENPDGGDEYWGQGTQVTVSS	high polyreactivity
6. QVQLVESGGGLVQAGGSLRLSCAASGRIFAHYAMGWYRQAPGKERELVAAISSGGSTYYADSVKGRFTISRDNEKNTVYLQINSLKPEDTAVYYCAADYLYPPYYEFYYWGQGTQVTVSS	low polyreactivity
7. QVQLVESGGGLVQAGGSLRLSCAASGSIFVPYDMGWYRQAPGKERELVAVISTDDGTYYADSVKGRFTISRDNAKNTVYLQMNSLKPEDTAVYYCAADRWYREYDYWGQGTQVTVSS	low polyreactivity
8. QVQLVESAGGLVQAGGSLRLSCAASGRIFNSNAMGWYRQAPGKERELVASITSRGDSTFYADSVKGRFTISRDTAKNTVYLQMNSLKPEDTAVYYCAANGLYYRTPPVYSYDYWGQGTQVTVSS	low polyreactivity
9. QVQLVESGGGLVQAGGSLRLSCAASGIIFVAYAMGWYRPAPGKERELVAAITKSGVRTYYADSVKGRFTISRGNAKNTVYLQMNSLKPEDTAVYYCAADRGVGVYYWGQGTQATVSS	high polyreactivity
10. QVQLVESGGGLVQAGGSLRLSCAASGLTFHRYAMGWYRQAPGKERELVAAINYSGGRTYYADSVKGRFTISRDNAKNTVYLQMNSLKPEDTAVYYCNKCYVYHPGSLEYGYWGQGTQVTVSS	high polyreactivity
11. QVQLVESGGGLVQAGGSLRLSSAASGSIFGDYVMGWYRPAPGKERELVAAINRGGSTYYADSVKGRFTISRDNAKNTVYLQMNSLKPEDTAVYDCAKDYHNYPSFGVDYCGQGTQVTVSS	low polyreactivity
12. QVQLVESGGGLVQAGGSLRLSCAASGSIFTYYAMGWYRKAPGKERELVAAITKSGGRTYYAHSVMGRFTISRDNAKNTVYLQMNRLKPEDTAVYYCAALYGRYQTSYQFDYWGQGTQVTVSS	high polyreactivity
13. QVQLVESAGGLVQAGGSLSLSCAASAFTYVCNRMGWNRQAPGKERELVAAITGSGSTNYADSVKGRFTISRDNAKNTVYLQMNSLKPEDTAVYYCATSDRQVKYDYWGQGTQVPVSS	low polyreactivity
14. QVQLVESGGGLVQAGGSLRLSCAASGRTFYVNTMGWYRQAPGKEREFVAAISYSGGRTYYADSVKGRFTISRDNAKNTVYLQMNSLKPEDTAVYYCATRINSWSAYTKYDYWGQGTQVTVSS	high polyreactivity
15. QVQLVESRGGLVHAGGSLRLSCAASGSIFQSYYMGWYRQAPGKERELVAAISWSGSTTYYADSVKGRFTISRDNAKNTVYLQMNSLKPEDTAVYYCAVDSNPPDWWAVIYGYWGQGTQVTVSS	low polyreactivity
16. QVQLVESGGGLVQAGGSLRLSCAASGRIFTIYAMGWYRQAPGKERELVATISRRGGSTYYADSVKGRFTISRDNAKNTVYFQMNSLKPEETAVYYCAADSVITWWAYDYWGQGTQVTVSS	high polyreactivity
17. QDQLVESGGGLVQAGGSLRLSCAASGRNIGGYAMGWNRLAPGKEWELVAAISRSGGSTYYADSVKGRFTISRDNAKNTVYLQMNSLKPEDTAVYYCAAETVSSFYTLWTGKYDYWGQGTQVTVSS	high polyreactivity
18. QVQLVESGGGLVQAGGSLRLSCAASGSTFIFYSMGCYRQAPGKERELVASITSSSGPTYYADSVKGRFTISRDNAKNTVYLQMNSLKPEDTAVYYCAKRPIRYYHLLRGNYWGQGTQVTVSS	low polyreactivity
19. QVQLVESRGGLVQAGGSLPLSCAASGSIFSRNALGWYRQAPGKERELVAAITWSGGSTYYADSVKGRFTISRDNAKNTVYLQMNSLKAEDTAVYYCNAKRSSRIKQLEYDYWGKGTQVTVSS	high polyreactivity
20. QVQLVESGGRLVQAGGSLRLSCAASGTFAVYTMGWYRQAPGKERELVAAISSGGSTYYADSVKGRFTISRDNAKNTVYLQMNSLKPEDTAVYYCNKPLSYGYDYWGQGTQVTVSS	high polyreactivity
21. QVQLVESGGGLVQAGGSLRLSCAASGRIFYANTMGWYRQAPGKERELVAAITGDGSTYADSVKGRFTISRDNAKNTVYLQMNSLKPEDTAVFYCAAEVDYSAFDYWGQGTQVTVSS	low polyreactivity

* * *

Assay: yeast display, Sf9 membrane polyspecificity reagent, FACS + sequencing; frameworks hold sequencing errors
Recorded Endpoint: polyreactivity (PSR sort gate)

1. QVQLVESGGGIVQAGGSLRLSCAASGFTFDYYAMGWYRQAPGKERELVAAISWRGTTTYYADSVKGRFTISRDNAKNTVYLQMNSLKPEDTAVYYCAADSLFGHYDYWGQGTQVTVSS	low polyreactivity
2. QVQLVESGGGLVQAGGSLRLSCAASGSTFYTNAMGWYTQAPGKERELVAAISGSGGSTYYADSVKGRFTISRDNAKNTVYLQMNSLKPEDTAVYYCAARSRYYDTRFDYWGQGTQVTVSS	low polyreactivity

* * *

Test: yeast display, Sf9 membrane polyspecificity reagent, FACS + sequencing; frameworks hold sequencing errors
Recorded Endpoint: polyreactivity (PSR sort gate)

1) QVHLVESGGGLVQAGGSLRLSCAASGSTFGYNAMGWYRQAPGKVWELVAVISYSGGSPYYADSVKGRFTLSRDNAKNTVSLQMNSLKPADTAVYYCAKRALTSTRYRVKYDSWGQGTQVTVAS	high polyreactivity
2) QVQLVESGGGLVQAGGSLRLSCASSGFTFIYYAMGWYRQAPGKERELVAAISGSGSTYYADSVKGRFTISRDNAKNTVYLQMNSLKPEDTAVYYCAADVTGGRKYDYWGQGTQVTVSS	low polyreactivity
3) QVQLVESGGGLVQAGGILRLSCDASGFTFGYYTMGWYRQAHGKEREFVAAITGGSGSTYYADSVKGRFTISRDNAKNTVYLQMNSLKPEDTAVYYCAASIWRGLTPLLIGFDYWGQGTQVTVSS	high polyreactivity
4) QVQLEESRGGVVQAGGSLRLSCAASGSIITVYALGWERQAPGQERELVAGISRGGGTYYADSVTGRFTISRDNAKNCVYLQMNSLKPEDTAVYYCAAQIELWPYGIYQSGMYYWGQGTQVTVSS	low polyreactivity
5) QVQLVESGGGLVQAGGSLRLSCAASGLTFYEDVLGWYRQAPGKERELVAAISYSGGRTYYADSVQGRFTISRDNAKNTVYLQMNSLKPEDTAVYYSAAQSRYAGKFYYWGQGTQVTVSS	high polyreactivity
6) QVHIVESGGGLDQAGGSLRLSCAASGFTFNAYAMGWYRQAPGKERELVAAISGRGSSTYYADSVKGRFTISRDNAKNTVYLQMNSLKPEDTEVYYCATKFYYQYPYRGDYWGQGTEVTVSS	high polyreactivity
7) QVQLVESGVGLVQAGGSLRLICAASGFILGQNAMGWYRQAPGKEREFVADISWSGDSTYYADSVKGRFTISRDNAKNTVYFQMNSLKPEDTAVYYCAADPYYNWGYYYWGQGTQVTVSS	low polyreactivity
8) QVQLVESRGGLVQARGSLRLSCAASGSTLFRYTKGWYRQAPGKERELVAAITRSGGNTFYADSVKGRFTISRDNSKNTVYLQMNSLKPEDTAVYYCAARARYVNCQGFDYWGQVTQVTVSS	high polyreactivity
9) QVQLVESGGGLVQAGGSLRLSCAASGSTIATYAMGWYRQAPGKERELVATISSSGSGTYYADSVKGRFTISRDNAKNTVYLQMNSLKPEDTAVYYCAVDSRGKLGISGEYGYWGQGSQVTVSS	low polyreactivity
10) QVQLVESGGGLVQAGGSLRLSCAASGSIFRGYTMGWYRQAPGKERELVAAISRSGGSTYYADSVKGRFTISRDNAKNTVYLQMNSLKPEDTAVYYCNVVYFVTTSAGYDYWGQGTQVTVSS	high polyreactivity
11) QVQLVESGGGLVQAGGSLRISCAASGFIFYWNAMGWYRQAPGKERELVAGITSGGDTNYADSVKGRFTISRDNAKNTVYLQINSLKPEDTAVYYCAAEGFRGYGYWGQGTQVTVSS	low polyreactivity
